Target: N+/K+ ATPase alpha-4/beta-1 (Rattus norvegicus, UniProt Q64541)
Sequence (Q64541 whole entry, other chains not shown): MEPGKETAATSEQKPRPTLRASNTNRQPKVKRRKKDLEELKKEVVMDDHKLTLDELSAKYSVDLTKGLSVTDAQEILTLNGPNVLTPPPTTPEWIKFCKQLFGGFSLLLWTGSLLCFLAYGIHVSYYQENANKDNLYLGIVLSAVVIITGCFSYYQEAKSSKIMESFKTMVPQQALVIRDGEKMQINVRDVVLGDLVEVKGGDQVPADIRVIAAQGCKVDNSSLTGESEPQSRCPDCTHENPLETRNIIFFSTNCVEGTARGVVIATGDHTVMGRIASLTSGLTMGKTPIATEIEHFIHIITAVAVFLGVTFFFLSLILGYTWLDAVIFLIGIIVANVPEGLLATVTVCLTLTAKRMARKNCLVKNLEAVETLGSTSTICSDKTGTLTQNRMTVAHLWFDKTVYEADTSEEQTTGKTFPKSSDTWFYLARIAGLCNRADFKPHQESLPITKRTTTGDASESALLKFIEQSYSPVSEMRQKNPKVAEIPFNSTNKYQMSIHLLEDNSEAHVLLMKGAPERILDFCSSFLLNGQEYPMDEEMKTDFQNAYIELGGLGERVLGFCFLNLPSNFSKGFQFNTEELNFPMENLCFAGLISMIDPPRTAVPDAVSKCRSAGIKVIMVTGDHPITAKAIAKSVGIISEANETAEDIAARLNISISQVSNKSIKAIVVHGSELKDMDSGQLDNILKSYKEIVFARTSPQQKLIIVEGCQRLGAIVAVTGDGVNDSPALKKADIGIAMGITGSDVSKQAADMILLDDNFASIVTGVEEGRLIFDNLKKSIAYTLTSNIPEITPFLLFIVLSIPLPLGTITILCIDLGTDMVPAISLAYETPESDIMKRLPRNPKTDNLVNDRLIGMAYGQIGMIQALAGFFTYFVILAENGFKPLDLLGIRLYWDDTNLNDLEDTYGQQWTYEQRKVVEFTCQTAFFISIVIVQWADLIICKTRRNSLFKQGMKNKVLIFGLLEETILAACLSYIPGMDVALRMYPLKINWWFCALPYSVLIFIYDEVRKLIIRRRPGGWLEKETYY
Assay: Inhibition of recombinant rat Na+/K+-ATPase alpha4/beta1 expressed in baculovirus infected insect Sf9 cell membranes using [gamma-32P]ATP as substrate preincubated for 10 mins followed by substrate addition measured after 30 mins in presence of Na+, K+ and Mg2+ by liquid scintillation counting
pIC50: −log10 of the molar value.
Reported Property: pIC50

Given "COCO[C@@H]1[C@H]2OC(C)(C)O[C@H]2[C@H](O[C@H]2C[C@H]3OC(C)(C)OC[C@]34[C@@H]3[C@@H](CC[C@]4(O)C2)[C@@]2(O)CC[C@H](C=O)[C@@]2(C)C[C@H]3OCOC)O[C@H]1C" , state its recorded pIC50.
8.15 to 8.31

Query "COCO[C@H]1C[C@H]2OC(C)(C)OC[C@]23[C@@H]2[C@@H](CC[C@]3(O)C1)[C@@]1(OCOC)CC[C@H](C(=O)O)[C@@]1(C)C[C@H]2OCOC" next
7.11 to 7.41

Query "COCO[C@H]1C[C@H]2OC(C)(C)OC[C@]23[C@@H]2[C@@H](CC[C@]3(O)C1)[C@@]1(OCOC)CC[C@H](C#N)[C@@]1(C)C[C@H]2OCOC" next
4.43 to 4.80
